# assay_target: MARS2 (Mus musculus, UniProt Q499X9)
# Construct: Flag-tagged, cDNA NM_175439.3
# Sequence (Q499X9 47-586): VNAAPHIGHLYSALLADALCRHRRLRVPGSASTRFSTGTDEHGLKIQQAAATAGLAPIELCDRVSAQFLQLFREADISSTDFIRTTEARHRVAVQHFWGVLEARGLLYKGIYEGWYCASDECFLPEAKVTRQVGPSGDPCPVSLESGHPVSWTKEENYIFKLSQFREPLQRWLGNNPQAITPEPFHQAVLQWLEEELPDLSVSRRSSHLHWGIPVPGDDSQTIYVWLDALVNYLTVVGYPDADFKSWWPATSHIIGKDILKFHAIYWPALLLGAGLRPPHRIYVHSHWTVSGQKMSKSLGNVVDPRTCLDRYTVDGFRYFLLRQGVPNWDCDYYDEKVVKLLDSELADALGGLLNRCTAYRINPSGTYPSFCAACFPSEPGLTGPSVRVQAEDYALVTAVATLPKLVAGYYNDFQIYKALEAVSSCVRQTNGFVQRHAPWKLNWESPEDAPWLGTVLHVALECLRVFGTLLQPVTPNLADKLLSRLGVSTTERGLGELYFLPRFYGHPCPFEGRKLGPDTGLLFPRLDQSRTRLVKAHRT
# assay_overview: in vitro HTL production from Hcy ([…]), thin layer chromatography
pIC50: −log10 of the molar value.
measured_metric: pIC50

compound | result_number
NC(=O)CSCCC(N)C(=O)O (racemic) | 4.40
